Test system: SK-MEL-28
Test: SRB colorimetric assay of cell growth and viability, SK-MEL-28
Format: cell-based, human
Settings: 48 hours exposure
Where a SMILES comes first, the peptide text is derived from it. Bridges are numbered along the chain shown (N, C = ends). [ ]: non-standard residue; d: D form. The star is where a group is joined. d(aIle) = CC[C@H](C)[C@@H](N)C(=O)O; d(aThr) = C[C@@H](O)[C@@H](N)C(=O)O; Hexanoyl(5-Me) = CC(C)CCCC(=O)*; Orn = NCCC[C@H](N)C(=O)O; Dhb = C/C=C(\N)C(=O)O
Lab note: compare GI50 with 800 nM, writing true (1) if less and false (0) if equal or more.

C/C=C1\NC(=O)[C@H](Cc2ccccc2)NC(=O)[C@@H](C(C)C)NC(=O)[C@@H]([C@@H](C)CC)NC(=O)[C@H](NC(=O)[C@H](NC(=O)[C@H](CCCN)NC(=O)[C@H]2CCCN2C(=O)[C@H](NC(=O)[C@@H](NC(=O)[C@H](C)NC(=O)CCCC(C)C)C(C)C)C(C)C)[C@@H](C)CC)[C@@H](C)OC(=O)[C@H](C(C)C)NC1=O [Compound 52, [Ala^12, noD-Val^13]-KF] ({Hexanoyl(5-Me)}-AV[dV][dP][Orn][d(aIle)][d(aThr)][d(aIle)][dV]F[Dhb]V; ester 7-C): false (0)
C/C=C1\NC(=O)[C@H](Cc2ccccc2)NC(=O)[C@@H](C(C)C)NC(=O)[C@@H]([C@@H](C)CC)NC(=O)[C@H](NC(=O)[C@H](NC(=O)[C@H](CCCN)NC(=O)[C@H]2CCCN2C(=O)[C@H](NC(=O)[C@@H](NC(=O)[C@@H](NC(=O)[C@H](NC(=O)CC[C@H](C)CC)C(C)C)[C@@H](C)O)C(C)C)C(C)C)[C@@H](C)CC)[C@@H](C)OC(=O)[C@H](C(C)C)NC1=O [Compound 16, [(4R)-MeHex^14]-KF]: false (0)
C/C=C1\NC(=O)[C@H](Cc2ccccc2)NC(=O)[C@@H](C(C)C)NC(=O)[C@@H]([C@@H](C)CC)NC(=O)[C@H](NC(=O)[C@H](NC(=O)[C@H](CCCN)NC(=O)[C@H]2CCCN2C(=O)[C@H](NC(=O)[C@@H](NC(=O)[C@@H](NC(=O)[C@H](NC(=O)CCCC(C)C)C(C)C)C(C)C)C(C)C)C(C)C)[C@@H](C)CC)[C@@H](C)OC(=O)[C@H](C(C)C)NC1=O [Compound 6, [Val^12]-KF] ({Hexanoyl(5-Me)}-[dV]VV[dV][dP][Orn][d(aIle)][d(aThr)][d(aIle)][dV]F[Dhb]V; ester 8-C): true (1)

As a next step, examine the compound that follows.
Query: API: query returns whether the compound falls strictly under 800 nM in GI50. Query: C/C=C1\NC(=O)[C@H](Cc2ccccc2)NC(=O)[C@@H](C(C)C)NC(=O)[C@@H]([C@@H](C)CC)NC(=O)[C@H](NC(=O)[C@H](NC(=O)[C@H](CCCN)NC(=O)[C@H]2CCCN2C(=O)[C@H](NC(=O)[C@@H](NC(=O)[C@@H](NC(=O)[C@H](NC(=O)C(F)(F)C(F)(F)C(F)(F)C(F)(F)C(F)(F)C(F)(F)F)C(C)C)[C@@H](C)O)C(C)C)C(C)C)[C@@H](C)CC)[C@@H](C)OC(=O)[C@H](C(C)C)NC1=O [Compound 26, [Pfh^14]-KF]
Result: true (1)

Reference source: patent US20070117743A1
